Recorded values, source ChEMBL document CHEMBL1138489.

Protein target, amino acids: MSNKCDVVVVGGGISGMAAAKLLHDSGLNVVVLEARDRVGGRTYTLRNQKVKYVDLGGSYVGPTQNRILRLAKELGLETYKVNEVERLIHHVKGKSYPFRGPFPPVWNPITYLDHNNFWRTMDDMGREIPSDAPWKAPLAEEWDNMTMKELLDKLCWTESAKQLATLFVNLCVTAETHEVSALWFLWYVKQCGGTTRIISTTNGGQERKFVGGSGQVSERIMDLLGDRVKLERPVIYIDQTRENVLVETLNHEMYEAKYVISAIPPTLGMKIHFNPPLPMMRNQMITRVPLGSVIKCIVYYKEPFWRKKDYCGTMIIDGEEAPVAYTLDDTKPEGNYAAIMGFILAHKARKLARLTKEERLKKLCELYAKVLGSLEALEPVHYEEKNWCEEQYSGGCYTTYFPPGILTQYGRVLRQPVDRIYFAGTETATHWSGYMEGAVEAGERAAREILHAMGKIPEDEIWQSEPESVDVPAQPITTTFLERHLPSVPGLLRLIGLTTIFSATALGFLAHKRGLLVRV
So I've got a bunch of molecules here, and I need their IC50 values.
One number for each entry, in nM.

Some molecules with known IC50 results, for comparison:
molecule	uom	IC50
O=C(/C=C/c1ccccc1)c1ccccc1 [CHALCONE]	nM	1410
CC(C)=CCOc1ccc(C(=O)/C=C/c2ccc(Cl)cc2)c(O)c1	nM	1250
O=C(/C=C/c1ccc(Cl)cc1)c1ccc(O)cc1O	nM	5.1

Please examine the following record next.
Dear colleague, I am looking for the recorded IC50 of the following molecule: O=C(/C=C/c1ccc(Cl)cc1)c1ccc(O)cc1 31
